The reported numbers originate from the supplement of paper PMC10567573.

B1: CD69 (parent)
chain: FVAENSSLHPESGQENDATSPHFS

# Variants of: B1
# Experimental protocol: protein stability index of a GFP-peptide fusion (GPS, HEK-293T) (PSI 1-6); higher = more stable;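 further: lentivirally expressed fusions sorted by FACS into six bins by GFP to DsRed ratio, PSI derived from sequencing read proportions per bin multiplied by bin number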
# Assay context: c terminus: a fixed tail appended
Value kind: protein stability index

Variant designation | Value kind | Data value
E15V | protein stability index | 2.67
Q14H | protein stability index | 3.47
Q14A | protein stability index | 3.06
S24E | protein stability index | 3.75
S24C | protein stability index | 2.5
E11M | protein stability index | 2.36
E15F | protein stability index | 1.91
Q14M | protein stability index | 3.28
E4W | protein stability index | 3.23
F23P | protein stability index | 3.37
E15M | protein stability index | 2.83
A3G | protein stability index | 2.98
A18Q | protein stability index | 3.53
F23W | protein stability index | 2.02
D17M | protein stability index | 2.46
N5E | protein stability index | 3.7
H22E | protein stability index | 3.82
F23I | protein stability index | 3.46
S6Y | protein stability index | 2.85
S20T | protein stability index | 3.12
Q14F | protein stability index | 2.84
E4I | protein stability index | 2.42
S6W | protein stability index | 2.07
S20F | protein stability index | 2.32
P21S | protein stability index | 2.98
Q14K | protein stability index | 3.13
